Biological target: GSK-3β (AA 1-420) (Homo sapiens, UniProt P49841)
Sequence (P49841 whole entry, species assumed, the tested form may be a part): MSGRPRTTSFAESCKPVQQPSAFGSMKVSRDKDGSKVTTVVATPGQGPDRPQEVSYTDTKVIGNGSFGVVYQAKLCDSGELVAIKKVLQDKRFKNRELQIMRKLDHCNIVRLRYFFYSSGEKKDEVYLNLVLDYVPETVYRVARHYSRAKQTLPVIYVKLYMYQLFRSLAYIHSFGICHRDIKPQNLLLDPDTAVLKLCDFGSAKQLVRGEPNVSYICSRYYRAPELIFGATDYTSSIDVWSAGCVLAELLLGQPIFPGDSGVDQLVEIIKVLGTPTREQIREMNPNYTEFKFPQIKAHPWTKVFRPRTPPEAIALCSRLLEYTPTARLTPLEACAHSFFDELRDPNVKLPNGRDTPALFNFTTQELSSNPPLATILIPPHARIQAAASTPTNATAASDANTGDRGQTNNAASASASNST
quantity_name: Ki

Noted Ki for `Cc1nc(-c2ccccc2Cl)nc(Nc2n[nH]c3ncc(F)cc23)c1C` , tested on GSK-3β (AA 1-420) (Homo sapiens, UniProt P49841): < 5 nM

----------
Target: GSK3β TYR 216 (Homo sapiens)
Construct: western blotting of Jurkat cells dosed with the compounds; endogenous in cells
Sequence (P49841 whole entry): as the sequence (P49841 whole entry, species assumed, the tested form may be a part) above
Test: GSK3β p-TYR Inhibition Assay (western blotting of Jurkat cells)
Settings: western blot, read-out: GSK3b pTYR 216: IC50
Exercise: for every item that follows, state its recorded IC50.

>>> measured("CCc1c(C)nc(-c2ccccc2Cl)nc1Nc1n[nH]c2ncc(F)cc12 [Compound I-2]")
"30 nM"

Now for another entry.
Query Cc1nc(-c2ccccc2Cl)nc(Nc2n[nH]c3ncc(F)cc23)c1C [Compound I-1] yields IC50 of 3 nM

Attribution: patent US8518953B2
